The reported measurements were obtained from patent US20260085067A1.

Tested on: pCHK1 (S345) in Colo320 DM cells
METHOD_SUMMARY: Alphalisa assay, detection of pCHK1 (S345) in Colo320 DM cells
Type: cell-based, human
CONDITION_DESCRIPTION: Homo sapiens, COLO 320DM, compound overnight (approximately 16 hours)
Method: Colo320 DM cells (ATCC #CCL-220, derived from human colorectal adenocarcinoma, Dukes' type C) were seeded on a […], cell culture treated assay plate at a density of 50,000 cells/well in 200 μL of RPMI-1640 media supplemented with 10% Fetal Bovine Serum and incubated at 37° C. overnight. […] Plates were read on an Alpha Technology-compatible plate reader using standard AlphaLisa settings.
MEASURED_PARAMETER: IC50

// known answers, use as guide
Form field IC50, entry "COCc1cc(Cl)cc2c1S(=O)(=O)N([C@H](c1n[nH]c(=O)o1)[C@H](C)c1c(F)ccc(C)c1C)CCO2" : ≤ 1 µM

Form field IC50, entry Cc1ccc(F)c([C@@H](C)[C@@H](c2n[nH]c(=O)o2)N2CN(C3CCCOC3)c3cc(Cl)ccc3S2(=O)=O)c1C (stereo in doubt) [Example 44] : ≤ 1 µM

Form field IC50, entry "Cc1ccc(F)c([C@@H](C)[C@@H](c2n[nH]c(=O)o2)N2CN(C)c3c(ccc(Cl)c3C)S2(=O)=O)c1C" : 10 to 50 µM

Form field IC50, entry "Cc1ccc(F)c([C@@H](C)[C@@H](c2n[nH]c(=O)o2)N2CN(C)c3cc(Cl)cc(C)c3S2(=O)=O)c1C" : 10 to 50 µM

Form field IC50, entry "Cc1ccc(F)c([C@@H](C)[C@@H](c2n[nH]c(=O)o2)N2CN(CCN3CCN(C)CC3)c3cc(Cl)ccc3S2(=O)=O)c1C" : 1 to 5 µM

Form field IC50, entry "Cc1ccc(F)c([C@@H](C)[C@@H](c2n[nH]c(=O)o2)N2CN([C@H]3CCN(CC(F)(F)F)C3)c3cc(Cl)ccc3S2(=O)=O)c1C" : 1 to 5 µM

Alright, here's another compound for you.
Form field IC50, entry "Cc1ccc(F)c([C@@H](C)[C@@H](c2n[nH]c(=O)o2)N2CN(C3CCOCC3)c3nc(Cl)ccc3S2(=O)=O)c1C" : ≤ 1 µM
